Every entry's value here was drawn from patent US20250340591A1.

- Test system: GPR39 (Homo sapiens)
- Sequence (O43194 whole entry): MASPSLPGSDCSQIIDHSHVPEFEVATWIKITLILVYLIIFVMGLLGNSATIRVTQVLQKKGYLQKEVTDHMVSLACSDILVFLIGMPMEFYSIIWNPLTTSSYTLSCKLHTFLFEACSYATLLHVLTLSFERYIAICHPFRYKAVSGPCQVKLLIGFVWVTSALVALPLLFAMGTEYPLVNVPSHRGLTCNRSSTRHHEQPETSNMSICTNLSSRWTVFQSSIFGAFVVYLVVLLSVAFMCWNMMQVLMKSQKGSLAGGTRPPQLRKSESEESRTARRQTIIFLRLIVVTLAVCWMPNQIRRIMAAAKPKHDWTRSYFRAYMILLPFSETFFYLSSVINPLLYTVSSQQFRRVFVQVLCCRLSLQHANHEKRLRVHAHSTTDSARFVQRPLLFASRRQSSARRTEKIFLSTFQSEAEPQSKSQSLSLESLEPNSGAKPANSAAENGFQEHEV
- Protocol details: luciferase assay system (SRE luciferase reporter gene, CV-1 cells expressing GPR39)
- Type: cell-based
- Set-up: expressed in transfected cells; host or cells: CV-1 fibroblast cell line (Korea Cell Line Bank), adenoviral transduction at 50 MOI
Square brackets hold non-standard residues; d marks the D form. Peptide text beside a SMILES is read from it. * marks the point of attachment. His(Trt) = N[C@@H](Cc1cn(C(c2ccccc2)(c2ccccc2)c2ccccc2)cn1)C(=O)O; Octanoyl = CCCCCCCC(=O)*
Metric: ECmax (−fold induction over basal)

INSERT INTO measurements (molecule, metric, display_unit, recorded_number) VALUES
  ('CCCCCCCC(=O)NCCCC[C@H](NC(=O)[C@@H](N)Cc1cn(C(c2ccccc2)(c2ccccc2)c2ccccc2)cn1)C(=O)N[C@@H](Cc1ccccc1)C(=O)N[C@@H](Cc1ccc(O)cc1)C(=O)N[C@@H](CO)C(=O)N[C@@H](CC(=O)O)C(=O)N[C@@H](CCC(N)=O)C(=O)N[C@@H](CCC(N)=O)C(=O)N[C@@H](C)C(=O)N[C@@H](CCCNC(=N)N)C(=O)N[C@@H](Cc1ccccc1)C(N)=O [HKFY-38] (H-[His(Trt)]K(Octanoyl)FYSDQQARF-NH2)', 'ECmax (−fold induction over basal)', 'fold induction over basal', 16.5),
  ('CCCCCCCC(=O)NCCCC[C@H](NC(=O)[C@@H](N)Cc1cn(C(c2ccccc2)c2ccccc2)cn1)C(=O)N[C@H](Cc1ccc(C)cc1)C(=O)N[C@@H](Cc1ccc(O)cc1)C(=O)O', 'ECmax (−fold induction over basal)', 'fold induction over basal', 22.39),
  ('CCCCCCCC(=O)NCCCC[C@H](NC(=O)[C@@H](N)Cc1cn(C(c2ccccc2)(c2ccccc2)c2ccccc2)cn1)C(=O)N[C@@H](Cc1ccccc1)C(=O)N[C@@H](Cc1ccc(O)cc1)C(=O)N[C@@H](Cc1c[nH]c2ccccc12)C(=O)O [HKFY-44] (H-[His(Trt)]K(Octanoyl)FYW-OH)', 'ECmax (−fold induction over basal)', 'fold induction over basal', 20),
  ('CCCCCCCC(=O)NCCCC[C@H](NC(=O)[C@@H](N)Cc1c[nH]c(-c2ccc(C(C)(C)C)cc2)n1)C(=O)N[C@H](Cc1ccc(C)cc1)C(=O)N[C@@H](Cc1ccc(O)cc1)C(=O)O', 'ECmax (−fold induction over basal)', 'fold induction over basal', 28.2);
